# System: OVCAR-3 ovarian
# method-description: NCI tumour cell line growth inhibition, 48 h
In this section we review reported TGI values for a set of molecules.
readout-kind: TGI

[
  {
    "molecule": "NS(=O)(=O)c1cc(Cl)c(NC(=S)NC(=O)Nc2ccc(Cl)c(Cl)c2)c(Cl)c1",
    "target-under-test": "OVCAR-3 ovarian",
    "result": "> 100 µM"
  },
  {
    "molecule": "CC(C)(C)OC(=O)N[C@H]1CC2(C=C(Cl)C(=O)C(Cl)=C2)OC1=O",
    "target-under-test": "OVCAR-3 ovarian",
    "result": "28.1 µM"
  },
  {
    "molecule": "CC(=O)[C@@]12O[C@@H]1CC1C3CCC4=CC(O)CCC4(C)C3CCC12C (stereo partly specified)",
    "target-under-test": "OVCAR-3 ovarian",
    "result": "> 100 µM"
  },
  {
    "molecule": "CCNC(=O)Cc1nc2c(N)ncnc2n1C1OC(CO)C(O)C1O (stereo unspecified)",
    "target-under-test": "OVCAR-3 ovarian",
    "result": "> 100 µM"
  },
  {
    "molecule": "CCCCCCOc1ccc(C(=O)NOC)cc1",
    "target-under-test": "OVCAR-3 ovarian",
    "result": "> 100 µM"
  },
  {
    "molecule": "O=c1[nH]c(Nc2nc3ccccc3[nH]2)nc(O)c1-c1ccccc1",
    "target-under-test": "OVCAR-3 ovarian",
    "result": "> 100 µM"
  }
]

* * *

# Tested on: NCI/ADR-RES ovarian
# method-description: NCI tumour cell line growth inhibition, 48 h; in the data active means GI50 below about 0.43 µM; inactive means the rest
Possible outcomes: active, inactive

[
  {
    "compound": "COc1cc2c3c(n(C)c(=O)c2cc1OC)-c1cc2c(cc1/C3=C\\CCCN)OCO2",
    "assigned-class": "inactive"
  },
  {
    "compound": "CC(C)[C@H]1COC(=O)N1[C@@H]1C(=O)N([C@@H](CCC(=O)N2CCN(C3CCCC3)CC2)C(=O)N[C@@H]2CCCc3ccccc32)[C@@H]1/C=C/c1cccc(Br)c1",
    "assigned-class": "inactive"
  },
  {
    "compound": "Fc1cc2[nH]ncc2c2c3c(c(-c4cn[nH]c4)nc12)CCCC3",
    "assigned-class": "inactive"
  },
  {
    "compound": "CCN1CCN(c2nc(C)cc(N(CCNc3ccnc4cc(Cl)ccc34)Cc3ccc4c(c3)OCO4)n2)CC1",
    "assigned-class": "inactive"
  },
  {
    "compound": "COc1cc(/C=C2\\CN(S(=O)(=O)c3ccccc3)C/C(=C\\c3cc(CN4CCCC4)c(O)c(OC)c3)C2=O)cc(CN2CCCC2)c1O",
    "assigned-class": "inactive"
  },
  {
    "compound": "COc1ccc(-c2nnc(COc3ccc(NC(=O)Nc4cc(C(F)(F)F)cc(C(F)(F)F)c4)cc3F)o2)cc1",
    "assigned-class": "inactive"
  },
  {
    "compound": "CO[C@H]1/C=C(/C)CCC[C@H](C)[C@H](O)[C@@H](C)C(=O)C(C)(C)[C@@H](O)CC(=O)O[C@@H]1/C(C)=C/c1csc(C)n1",
    "assigned-class": "active"
  },
  {
    "compound": "C=C1NC(=O)C(C(C)CC)NC(=O)C2CSCC(NC(=O)CCC(=O)O)C(=O)NC(Cc3ccccc3)C(=O)NC(C)C(=O)NC(CC(C)CC)C(=O)NC(C(=O)NC(Cc3ccccc3)C(=O)N3CCCC3C(=O)N2)C(C)OC(=O)C(CO)NC(=O)C(C(O)COC)N(C)C(=O)C(C(C)C)NC(=O)C(CC(C)CC)NC1=O (stereo not drawn)",
    "assigned-class": "active"
  },
  {
    "compound": "COc1cccc(-c2nc(-c3ccc(NC(=O)C(C)C)cc3)[nH]c2-c2ccnc(Br)c2)c1",
    "assigned-class": "inactive"
  },
  {
    "compound": "ClCc1cccc(Cn2cnc3ncnc(Cl)c32)c1",
    "assigned-class": "inactive"
  },
  {
    "compound": "O=C(CCc1nnc2sc(-c3ccc(Cl)cc3Cl)nn12)c1nc2ncccc2[nH]1",
    "assigned-class": "inactive"
  },
  {
    "compound": "Cc1c2c(nn1-c1ccc(S(=O)(=O)/N=C3\\SCCC(=O)N3c3ccccc3)cc1)-c1ccccc1CC2",
    "assigned-class": "inactive"
  },
  {
    "compound": "CCCCCCCC(=O)SCC/C=C/[C@@H]1CC(=O)NCc2cc(ccn2)C2=N[C@@](C)(CS2)C(=O)N[C@@H](C(C)C)C(=O)O1",
    "assigned-class": "active"
  }
]

* * *

# System: MALME-3M melanoma
# method-description: NCI tumour cell line growth inhibition, 48 h
In this section we review reported TGI values for a set of compounds.

[
  {
    "compound": "C=CCSc1nnc2cc(CN3CCCC3)c(-c3ccc(Cl)cc3)nn12",
    "TGI": "43.2 µM"
  },
  {
    "compound": "C/C(=N\\NC(=S)NC(CCC(=O)O)C(=O)O)c1ccccn1 (stereo not drawn)",
    "TGI": "> 100 µM"
  },
  {
    "compound": "CCN1c2ccccc2C(C(SC)S(=O)(=O)c2ccc(C)cc2)c2c1[nH]c(=O)n(C)c2=O (stereo not drawn)",
    "TGI": "> 100 µM"
  },
  {
    "compound": "O=c1cc(-c2ccccc2)oc2cc(OCCCOc3ccc4c(=O)cc(-c5ccccc5)oc4c3)ccc12",
    "TGI": "> 100 µM"
  },
  {
    "compound": "C=C(Br)C(C)(Br)CCC(Br)C(C)(C)Cl (stereo not drawn)",
    "TGI": "39.3 µM"
  },
  {
    "compound": "COP(=O)(/C=C/c1cc(C(=O)OCc2ccccc2)n(S(=O)(=O)c2ccccc2)c1)OC",
    "TGI": "> 100 µM"
  },
  {
    "compound": "C[Si](C)(C)C1(Sc2ccccc2)SCCCS1",
    "TGI": "> 100 µM"
  },
  {
    "compound": "N#CC12C(=O)N=C(N)C1(C#N)C(c1ccco1)NC1=C2CCCC1 (stereo not drawn)",
    "TGI": "> 100 µM"
  },
  {
    "compound": "Cc1ccc(C(=C2Sc3ccccc3S2)C(=C2Sc3ccccc3S2)c2ccc(C)s2)s1",
    "TGI": "> 100 µM"
  },
  {
    "compound": "O=C(CCc1nnc2sc(-c3ccc(Cl)cc3Cl)nn12)c1nc2ncccc2[nH]1",
    "TGI": "4.1 µM"
  },
  {
    "compound": "CC1OC(OC2C(OC(=O)[C@]34CCC(C)(C)C[C@H]3C3=CC[C@@H]5[C@@]6(C)CC[C@H](OC7OC(C(=O)O)C(O)C(O)C7O)C(C)(C)[C@@H]6CC[C@@]5(C)[C@]3(C)C[C@H]4O)OCC(O)C2O)C(O)C(OC2OCC(O)(CO)C2O)C1OC1OCC(O)C(O)C1O (stereo partly drawn)",
    "TGI": "24.7 µM"
  },
  {
    "compound": "CN(C)c1ccc(S(=O)Nc2ccccc2)cc1 (stereo not drawn)",
    "TGI": "> 100 µM"
  },
  {
    "compound": "O=c1[nH]c(=O)n(C2OC(CO)C(O)C2O)c2nc(-c3ccc(-c4ccccc4)cc3)cnc12 (stereo not drawn)",
    "TGI": "> 100 µM"
  },
  {
    "compound": "CCN(CC)CCn1c(=O)c2cccnc2n2c3c(=O)n(C)c(=O)n(C)c3nc12",
    "TGI": "> 100 µM"
  },
  {
    "compound": "Nc1ncnc2n[nH]c(Nc3ccc(F)cc3)c12",
    "TGI": "> 100 µM"
  },
  {
    "compound": "COc1cc(C2c3cc4c(cc3OC(NN)C2C)OCO4)cc(OC)c1OC (stereo not drawn)",
    "TGI": "> 100 µM"
  },
  {
    "compound": "COc1ccc2c(c1)OCC1Cc3ccccc3OC21 (stereo not drawn)",
    "TGI": "> 100 µM"
  },
  {
    "compound": "CCN(CC)c1ccc(-c2cc(-c3cc(OC)c(OC)c(OC)c3)nc(N3CCOCC3)c2C#N)cc1",
    "TGI": "> 29.9 µM"
  },
  {
    "compound": "COc1cc(OC)cc(-c2cc(=O)c3c(OC)c(OC)c(OC)c(OC)c3o2)c1",
    "TGI": "> 100 µM"
  },
  {
    "compound": "CC(=O)OC1=CC(n2cc(F)c(=O)[nH]c2=O)OC(C)C1=O (stereo not drawn)",
    "TGI": "> 100 µM"
  },
  {
    "compound": "C#CC1(O)CCC2C3CCc4cc(Oc5nc(F)nc(-c6c7ccccc7c7sc8ccccc8n67)n5)ccc4C3CC[C@@]21C (stereo partly drawn)",
    "TGI": "> 100 µM"
  },
  {
    "compound": "O=c1c2sc(=S)n(-c3ccc(F)cc3)c2ncn1/N=C/c1ccc(F)cc1F",
    "TGI": "41.6 µM"
  },
  {
    "compound": "Cc1cc(O)c(/C=N/C(=S)NCc2ccccc2)c(=O)o1",
    "TGI": "> 100 µM"
  },
  {
    "compound": "CCCCCCCC(=O)SCC/C=C/[C@@H]1CC(=O)NCc2cc(ccn2)C2=N[C@@](C)(CS2)C(=O)N[C@@H](C(C)C)C(=O)O1",
    "TGI": "> 33.3 µM"
  },
  {
    "compound": "COc1ccc(-c2nc(SCC(=O)N/N=C/c3ccc(N(C)C)cc3)[nH]c2-c2ccc(OC)cc2)cc1",
    "TGI": "> 100 µM"
  },
  {
    "compound": "NS(=O)(=O)c1cc(Cl)c(NC(=S)NC(=O)Nc2ccc(Cl)c(Cl)c2)c(Cl)c1",
    "TGI": "> 100 µM"
  },
  {
    "compound": "C[C@@H]1CCC2[C@@H](C)[C@@H](OCC(CO[C@H]3OC4O[C@@]5(C)CC[C@H]6[C@H](C)CCC([C@H]3C)[C@@]46OO5)OC(=O)CCC(=O)O)OC3O[C@@]4(C)CC[C@@H]1[C@]32OO4 (stereo partly drawn)",
    "TGI": "12.4 µM"
  },
  {
    "compound": "CCOC(=O)c1nc2c(nc1C(=O)OCC)C(=O)c1ccccc1C2=O",
    "TGI": "0.362 µM"
  },
  {
    "compound": "CC(=N/N=C/c1ccccn1)/C(C)=N/N=C(C)/C(C)=N/N=C(C)/C(C)=N/N=C(C)/C(C)=N\\N=C\\c1ccccn1",
    "TGI": "> 100 µM"
  },
  {
    "compound": "COc1c(Cl)c(=O)oc2ccc(Cl)cc12",
    "TGI": "> 100 µM"
  },
  {
    "compound": "CC(C)OP(=O)(OC(C)C)C(=NCCN=C(NNc1ccc([N+](=O)[O-])cc1)P(=O)(OC(C)C)OC(C)C)NNc1ccc([N+](=O)[O-])cc1",
    "TGI": "> 100 µM"
  },
  {
    "compound": "CN(C)c1ccc(/C=C(\\NC(=O)c2ccccc2)c2nc3ncncc3[nH]2)cc1",
    "TGI": "> 100 µM"
  },
  {
    "compound": "COC(=O)C1CCC(=O)N1C(c1ccc(OC)cc1)c1ccc2c(c1)OCO2 (stereo not drawn)",
    "TGI": "> 100 µM"
  },
  {
    "compound": "Nc1ncnc2c1nnn2C1OC(CO)C(O)C1O (stereo not drawn)",
    "TGI": "4.62 µM"
  },
  {
    "compound": "Clc1ccc(C(c2ccc(Cl)cc2)c2ccccn2)cc1",
    "TGI": "41.2 µM"
  },
  {
    "compound": "CCCCCCCCC/C=C1\\CCC(CN2CCOCC2)C1=O (stereo not drawn)",
    "TGI": "19 µM"
  },
  {
    "compound": "Cc1c(S(=O)(=O)c2ccccc2)c(N)n(CCN(C)C)c1C",
    "TGI": "> 100 µM"
  },
  {
    "compound": "OCCCCCNCc1cc2cc3c(cc2c2cc(OCc4ccccc4)ccc12)OCO3",
    "TGI": "3.1 µM"
  }
]
